Data credit: patent US20030068675

system: T1, ZFP SBS#1474 (synthetic)
T1 chain: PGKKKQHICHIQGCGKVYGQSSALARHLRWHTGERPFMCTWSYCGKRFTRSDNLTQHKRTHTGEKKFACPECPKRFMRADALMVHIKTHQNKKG
protocol.notes: EMSA
assay.setup: tags: MBP fusion
measure: Kd
Don't forget the unit after the value.

Query: Value lookup for Kd; key = TTGAAGGTT (dsDNA) DNA 1: TTGAAGGTT DNA 2: AACCTTCAA
Result: 1.39 nM
